These data points were gathered from patent US20180344808A1.

# system-name: HMGB1 (Homo sapiens)
# Sequence (P09429 whole entry, species assumed): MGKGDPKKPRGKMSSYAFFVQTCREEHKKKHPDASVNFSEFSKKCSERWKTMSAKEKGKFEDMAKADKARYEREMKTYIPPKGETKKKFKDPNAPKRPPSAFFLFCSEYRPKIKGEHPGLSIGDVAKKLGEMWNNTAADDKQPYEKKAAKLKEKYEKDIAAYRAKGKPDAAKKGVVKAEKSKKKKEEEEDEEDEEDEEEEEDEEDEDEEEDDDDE
# measurement-notes: Surface plasmon resonance (BIAcore) analysis of binding to HMGB1
# assay-context: BIAcore analysis
No end group written: not given here.
endpoint-name: Kd

Lookup: Give recorded Kd with HMGB1 (Homo sapiens) for the following sequence: GYVSGWGRNANFKFTDHLKYVMLPVAD [Hpβ peptide]
Found: ~17 µM
